# PROCEDURE TEXT: Half life in fasted Crlj:CD1(ICR) mouse at 2.9 mg/kg, iv
# Type: ADME, organism-based
# Parameters: dose 2.9 mg/kg, route intravenous
# SETTINGS: in vivo
PARAMETER MEASURED: half-life (h)
Please respond with the number in h and leave the unit unwritten.

// query Determine from records and report half-life for CCc1ccc(Cc2ccc3c(c2)[C@]2(OC3)O[C@H](CO)[C@@H](O)[C@H](O)[C@H]2O)cc1 [TOFOGLIFLOZIN ANHYDROUS]
// result 2.66

###

# PROCEDURE TEXT: Total clearance in fasted Crlj:CD1(ICR) mouse at 2.9 mg/kg, iv
# Assay type: ADME, organism-based
# Parameters: dose 2.9 mg/kg, route intravenous
# SETTINGS: in vivo
PARAMETER MEASURED: clearance (mL/min/kg)
Please respond with the number in mL/min/kg and leave the unit unwritten.

// query Determine from records and report clearance for CCc1ccc(Cc2ccc3c(c2)[C@]2(OC3)O[C@H](CO)[C@@H](O)[C@H](O)[C@H]2O)cc1 [TOFOGLIFLOZIN ANHYDROUS]
// result 10.6

###

# PROCEDURE TEXT: AUC (infinity) in fasted Crlj:CD1(ICR) mouse at 2.6 mg/kg, po
# Format: ADME, organism-based
# Set-up: time infinity, dose 2.6 mg/kg, route oral
# SETTINGS: plasma
PARAMETER MEASURED: AUC(0-inf) (ng·h/mL)
Please respond with the number in ng·h/mL and leave the unit unwritten.

// query Determine from records and report AUC(0-inf) for CC(C)c1ccc(Cc2ccc3c(c2)[C@]2(OC3)O[C@H](CO)[C@@H](O)[C@H](O)[C@H]2O)cc1
// result 1850

###

# PROCEDURE TEXT: AUC (infinity) in fasted cynomolgus monkey at 1.7 mg/kg, po
# Type: ADME, organism-based, Macaca fascicularis
# Set-up: time infinity, dose 1.7 mg/kg, route oral
# SETTINGS: plasma
PARAMETER MEASURED: AUC(0-inf)
Include the unit after the number when you answer.

// query Determine from records and report AUC(0-inf) for CCc1ccc(Cc2ccc3c(c2)[C@]2(OC3)O[C@H](CO)[C@@H](O)[C@H](O)[C@H]2O)cc1 [TOFOGLIFLOZIN ANHYDROUS]
// result 4030 ng·h/mL

###

# PROCEDURE TEXT: Half life in fasted cynomolgus monkey at 2.8 mg/kg, po
# Assay type: ADME, organism-based, Macaca fascicularis
# Set-up: dose 2.8 mg/kg, route oral
# SETTINGS: in vivo
PARAMETER MEASURED: half-life (h)
Please respond with the number in h and leave the unit unwritten.

// query Determine from records and report half-life for CC(C)c1ccc(Cc2ccc3c(c2)[C@]2(OC3)O[C@H](CO)[C@@H](O)[C@H](O)[C@H]2O)cc1
// result 3.75

###

# PROCEDURE TEXT: Cmax in fasted Crlj:CD1(ICR) mouse at 2.6 mg/kg, po
# Assay type: ADME, organism-based
# Parameters: dose 2.6 mg/kg, route oral
# SETTINGS: in vivo
PARAMETER MEASURED: Cmax (ng/mL)
Please respond with the number in ng/mL and leave the unit unwritten.

// query Determine from records and report Cmax for CC(C)c1ccc(Cc2ccc3c(c2)[C@]2(OC3)O[C@H](CO)[C@@H](O)[C@H](O)[C@H]2O)cc1
// result 470

meta.source: ChEMBL document CHEMBL2169783
